Target: ErbB2 with Exon 20 YVMA insertion (HER2-YVMA) (Homo sapiens (Human), UniProt P04626, INS775YVMA)
Sequence (P04626 other isoform, or with tags, fused parts or gaps ins YVMA behind 775): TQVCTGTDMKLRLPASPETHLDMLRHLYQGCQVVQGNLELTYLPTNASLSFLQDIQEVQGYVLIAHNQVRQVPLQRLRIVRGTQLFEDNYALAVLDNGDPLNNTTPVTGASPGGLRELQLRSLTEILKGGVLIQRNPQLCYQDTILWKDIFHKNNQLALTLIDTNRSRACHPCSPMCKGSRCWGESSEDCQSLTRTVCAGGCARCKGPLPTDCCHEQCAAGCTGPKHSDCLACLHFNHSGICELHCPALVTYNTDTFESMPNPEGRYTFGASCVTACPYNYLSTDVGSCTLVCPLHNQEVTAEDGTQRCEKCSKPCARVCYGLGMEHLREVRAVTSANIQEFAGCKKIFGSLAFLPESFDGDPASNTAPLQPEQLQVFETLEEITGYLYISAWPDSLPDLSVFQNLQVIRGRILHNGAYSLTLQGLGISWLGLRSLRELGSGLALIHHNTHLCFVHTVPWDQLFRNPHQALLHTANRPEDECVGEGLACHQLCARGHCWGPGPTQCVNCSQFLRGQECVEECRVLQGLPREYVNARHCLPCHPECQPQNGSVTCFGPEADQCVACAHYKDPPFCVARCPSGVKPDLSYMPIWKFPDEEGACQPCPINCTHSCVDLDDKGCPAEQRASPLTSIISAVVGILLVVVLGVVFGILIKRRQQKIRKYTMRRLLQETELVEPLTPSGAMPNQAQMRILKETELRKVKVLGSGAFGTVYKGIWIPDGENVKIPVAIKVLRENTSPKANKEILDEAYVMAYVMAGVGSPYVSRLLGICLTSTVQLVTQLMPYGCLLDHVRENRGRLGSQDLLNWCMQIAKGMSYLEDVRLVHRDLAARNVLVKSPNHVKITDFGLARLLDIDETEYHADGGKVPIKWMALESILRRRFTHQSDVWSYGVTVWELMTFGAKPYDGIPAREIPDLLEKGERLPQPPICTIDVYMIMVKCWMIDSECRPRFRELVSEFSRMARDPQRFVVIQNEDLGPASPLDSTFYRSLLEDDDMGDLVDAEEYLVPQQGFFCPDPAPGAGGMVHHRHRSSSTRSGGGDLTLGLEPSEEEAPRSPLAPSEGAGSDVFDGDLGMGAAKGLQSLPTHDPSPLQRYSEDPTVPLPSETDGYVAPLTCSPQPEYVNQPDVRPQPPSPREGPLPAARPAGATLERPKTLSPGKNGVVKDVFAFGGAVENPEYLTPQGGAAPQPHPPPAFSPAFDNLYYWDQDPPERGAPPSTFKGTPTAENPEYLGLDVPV
Assay: Cellular phosphorylation assay, constitutive ErbB2 phosphorylation (Y1196) in engineered NIH 3T3 cells, Assay 4
Class assignment keyed on IC50, ranges bottom range: < 30 nM; center range: ≥ 30 nM and < 100 nM; top range: ≥ 100 nM

compound	assigned_label
Clc1cc(Nc2ncnc3cnc(N4CC[C@@]5(CCOC5)C4)nc23)ccc1Oc1ccn2ncnc2c1	top range
Cc1cc(Nc2ncnc3cnc(N4CCN5CCOC[C@H]5C4)nc23)ccc1Oc1ccn2ncnc2c1	center range
O[C@H]1[C@@H]2CC[C@H]1CN(c1ncc3ncnc(Nc4ccc(Oc5ccn6ncnc6c5)c(Cl)c4)c3n1)C2	top range
Cc1cc(Nc2ncnc3cnc(N4CC5CC(C4)C5O)nc23)ccc1Oc1ccc2c(c1)ncn2C (centres unmarked)	center range
CN1CCN(c2ncc3ncnc(Nc4ccc(Oc5ccc6c(c5)ncn6C)c(Cl)c4)c3n2)CC1 [Example 143, 2,2,2-trifluoroacetate]	bottom range
Cc1cc(Nc2ncnc3cnc(N4CC(COC(F)F)C4)nc23)ccc1Oc1ccc2c(c1)ncn2C	top range
CNc1ncc2ncnc(Nc3ccc(Oc4cc(F)c5c(c4)ncn5C)c(C)c3)c2n1	bottom range
Cc1c(Oc2ccc3c(c2)ncn3C)ccc(Nc2ncnc3cnc(N4CC5CC5(O)C4)nc23)c1F (centres unmarked)	top range
Cc1cc(Nc2ncnc3cnc(N4CCC[C@@H]4C(F)F)nc23)ccc1Oc1ccc2c(c1)ncn2C	top range
COC[C@H](C)Nc1ncc2ncnc(Nc3ccc(Oc4ccc5c(c4)ncn5C)c(C)c3)c2n1	bottom range
